measurement_target: T1, hOrai1-mOrai1 ECL2 (VST) protein (human/mouse chimera, UniProt Q96D31 1-301)
T1 construct: also called Ch
T1 sequence (Q96D31 other isoform, or with tags, fused parts or gaps): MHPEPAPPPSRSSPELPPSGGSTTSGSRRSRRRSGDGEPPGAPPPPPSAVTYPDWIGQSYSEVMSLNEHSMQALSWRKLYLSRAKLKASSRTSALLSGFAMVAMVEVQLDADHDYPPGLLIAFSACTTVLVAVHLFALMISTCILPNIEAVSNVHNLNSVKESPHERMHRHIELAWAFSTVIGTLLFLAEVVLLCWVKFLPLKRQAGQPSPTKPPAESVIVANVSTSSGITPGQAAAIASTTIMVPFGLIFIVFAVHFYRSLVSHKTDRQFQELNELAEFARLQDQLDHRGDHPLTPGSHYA
test_description: FACS, 293EBNA
Set-up: concentration or dose not given beside the values
Description: FACS binding analysis. Transfected 293EBNA cells transiently expressed hOrai1-mOrai1 ECL2 or mOrai1-hOrai1 ECL2 chimera. The transfected cells were harvested at 48 hours post-transfection. Cells transfected with pcDNA3.1 were used as negative controls. […] Next, the unlabelled antibody was detected using goat F(ab′)₂ anti-mouse or anti-human IgG-phycoerythrin (IgG-PE), followed by a wash with 200 μL of ice-cold FACS buffer before flow cytometry analysis. […]
Entries annotated with measured percent of control (POC) of FACS Geo Mean

Example cases with answers are listed next.
mAb 2B4.1 (antibody, human IgG2, lambda, V domains shown) VH: QVQLVQSGAEVKKPGASVKVSCKASGYTFTDYYMHWVRQAPGQGLEWMGWINPNSGGTNYVQKFQDRVTMTRDTSITTAYMELTRLRSDDTAVYYCAREEGDYGMDVWGQGTTVTVSS VL: QSVLTQPPSVSGAPGQRVTISCTGSNSNIGTGYDVHWYQKLPGTAPRLLIYSHFNRPSGVPDRFSGSTSGTSASLAITGLQAEDEADYYCQSYDSSLSGSVFGGGTKLTVLG :: < 1%
mAb 2C1.1 (antibody, human IgG2, lambda, V domains shown, fully human IgG2 lambda, Campaign 1; tested hybridoma-purified and recombinant; also called anti-hOrai1 mAb 2C1.1) VH: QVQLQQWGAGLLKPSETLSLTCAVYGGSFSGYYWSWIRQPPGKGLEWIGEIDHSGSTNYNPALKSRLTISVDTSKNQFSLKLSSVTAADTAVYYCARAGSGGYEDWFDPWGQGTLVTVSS VL: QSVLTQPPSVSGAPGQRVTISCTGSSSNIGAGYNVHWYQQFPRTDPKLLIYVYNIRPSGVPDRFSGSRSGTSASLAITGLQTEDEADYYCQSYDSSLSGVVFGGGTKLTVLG :: < 1%

Please examine the following record next.
Which percent of control (POC) of FACS Geo Mean is reported for this binder? mAb 2D2.1 (antibody, human IgG2, lambda, V domains shown, fully human IgG2 lambda, Campaign 1; also called mAb 2D.1) VH: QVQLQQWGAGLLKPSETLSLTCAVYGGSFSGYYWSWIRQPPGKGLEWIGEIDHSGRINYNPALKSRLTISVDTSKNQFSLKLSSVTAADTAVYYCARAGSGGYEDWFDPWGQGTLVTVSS VL: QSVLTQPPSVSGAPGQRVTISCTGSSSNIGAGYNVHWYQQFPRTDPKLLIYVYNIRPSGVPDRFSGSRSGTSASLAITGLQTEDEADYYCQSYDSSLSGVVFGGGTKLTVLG
< 1%
